Provenance of the data: patent US20180079804A1

# target-entity: T1, tau peptide residues 416 to 430 of SEQ ID NO: 01 (human, also: biotinylated, site not given here)
# T1 construct: also called non-phosphorylated tau peptide
# T1 peptide: SIDMVDSPQLATLAD
# protocol-description: ELISA
No end group written: not given here.
Reported OD@1 µg/mL values are given for each entry in this list.
The answer is to be given in OD; state only the numeric part.

## Input For the binder shown here, VH32/VL22 (antibody, V domains shown, full size IgG) VH: EVQVLESGGGLVQPGGSLRLSCAVSGFSLSSNAINWVRQAPGKGLEWVGYIAVSGNTYYASWAKGRFTISRDNSKNTVYLQMNSLRAEDTAVYYCGKSNIWGQGTLVTVSS VL: AQVMTQSPSSLSASVGDRVTITCRSSQSVRTNRLAWFQQKPGQPPKRLIYSASTLDYGVPSRFSGSGSGTEFTLTISSLQPEDFATYYCLGYFDSSADIVAFGGGTKVEIK , give the reported OD@1 µg/mL.
## Output 2.26

## Input What do we get for VH35H5/VL35F2 (antibody, V domains shown, IgG captured via anti-human Fc) VH: EVQVLESGGGLVQPGGSLRLSCAVSGISLSSNAINWVRQAPGKGLEWVGYIAVSGNTYYASWAKGRFTISRDNSKNTVYLQMNSLRAEDTAVYYCGKSNIWGQGTLVTVSS VL: AQVMTQSPSSLSASVGDRVTITCRSSQSVRTNKLAWFQQKPGQPPKRLIYSASTLDFGVPSRFSGSGSGTEFTLTISSLQPEDFATYYCLGYFDSPLDIVAFGGGTKVEIK ?
## Output 1.31

## Input What would you report for VH32/VL35G4 (antibody, V domains shown, IgG captured via anti-human Fc) VH: EVQVLESGGGLVQPGGSLRLSCAVSGFSLSSNAINWVRQAPGKGLEWVGYIAVSGNTYYASWAKGRFTISRDNSKNTVYLQMNSLRAEDTAVYYCGKSNIWGQGTLVTVSS VL: AQVMTQSPSSLSASVGDRVTITCRSSQSVRTNKLAWFQQKPGQPPKRLIYSASTLDFGVPSRFSGSGSGTEFTLTISSLQPEDFATYYCAGYFEAPADIVAFGGGTKVEIK ?
## Output 0.07

## Input Now this one: VH00/VL00 (antibody, V domains shown, variable domains of rabbit mAb 086; also called VH00 with VL00 (rabbit antibody); parental rabbit antibody) VH: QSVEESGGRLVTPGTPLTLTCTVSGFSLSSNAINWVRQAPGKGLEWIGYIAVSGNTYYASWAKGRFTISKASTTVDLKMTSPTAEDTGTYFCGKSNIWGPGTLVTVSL VL: AQVLTQTTSPVSAAVGSTVTISCQSSQSVRTNKLAWFQQKPGQPPKRLIYSASTLDFGVPSRFSASGSGTQFTLTISDVQCDDAATYYCLGYFDCSIADCVAFGGGTEVVVK
## Output 0.54
